# assay target: farnesyl protein transferase (FPT), partially purified from rat brain (Rattus norvegicus, UniProt Q02293+Q04631)
# Construct: were partially purified from rat brain by ammonium sulfate fractionation followed by Q-Sepharose
# measurement notes: Inhibition of farnesyl protein transferase (transfer of [3H]farnesyl to Ras-CVLS)
# Type: biochemical
# experimental parameters: enzyme inhibition; read-out: FPT IC50
Reported IC50 by item:
reported metric: IC50 (µM)

{"compound": "CC(C)(C)NC(=O)N1CCC(CC(=O)N2CCN(C3c4ccc(Cl)cc4CCc4cccnc43)CC2)CC1 (centres unmarked)", "reported metric": "IC50", "readout unit": "µM", "value modifier": "=", "value measured": 1}
{"compound": "Nc1cc2c(nc1Br)C(=C1CCN(C(=O)Cc3ccncc3)CC1)c1ccc(Cl)cc1CC2", "reported metric": "IC50", "readout unit": "µM", "value modifier": "=", "value measured": 1.3}
{"compound": "O=C(Cc1cc[n+]([O-])cc1)N1CCN(C2c3ccc(Cl)cc3CCc3cccnc32)CC1 (centres unmarked)", "reported metric": "IC50", "readout unit": "µM", "value modifier": "=", "value measured": 0.74}
{"compound": "O=C(Cc1ccncc1)N1CCC(C2c3ccc(Cl)cc3C(=NO)Cc3cccnc32)CC1 (centres unmarked)", "reported metric": "IC50", "readout unit": "µM", "value modifier": "<", "value measured": 0.12}

Data provenance: patent US20030055065A1
